Target: Thyrotropin receptor (Homo sapiens) (UniProt P16473)
Sequence (P16473 whole entry, looked up): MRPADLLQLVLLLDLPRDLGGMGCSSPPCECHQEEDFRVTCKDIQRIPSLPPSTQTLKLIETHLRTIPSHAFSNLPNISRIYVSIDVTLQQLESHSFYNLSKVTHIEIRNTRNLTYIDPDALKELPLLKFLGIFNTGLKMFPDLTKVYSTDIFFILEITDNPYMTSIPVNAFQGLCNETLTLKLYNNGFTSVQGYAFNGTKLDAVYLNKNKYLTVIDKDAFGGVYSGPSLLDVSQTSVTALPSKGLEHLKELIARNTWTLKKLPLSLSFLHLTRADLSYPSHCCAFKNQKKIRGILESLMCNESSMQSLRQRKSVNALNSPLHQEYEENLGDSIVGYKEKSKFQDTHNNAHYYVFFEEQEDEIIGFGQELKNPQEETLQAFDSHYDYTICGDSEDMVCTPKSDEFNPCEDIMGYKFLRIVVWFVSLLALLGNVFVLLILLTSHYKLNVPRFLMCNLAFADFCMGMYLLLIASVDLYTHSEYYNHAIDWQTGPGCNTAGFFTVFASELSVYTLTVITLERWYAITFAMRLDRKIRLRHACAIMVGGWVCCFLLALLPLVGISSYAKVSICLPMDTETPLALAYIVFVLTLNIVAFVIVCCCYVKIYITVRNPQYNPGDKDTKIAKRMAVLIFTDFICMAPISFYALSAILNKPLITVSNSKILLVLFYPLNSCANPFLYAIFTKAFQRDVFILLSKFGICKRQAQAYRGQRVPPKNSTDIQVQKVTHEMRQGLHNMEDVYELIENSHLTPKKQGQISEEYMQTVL
Assay: qHTS assay to identify small molecule antagonists of the thyroid stimulating hormone receptor (TSHR) signaling pathway (AID 1259385); also: nearly all actives have a fitted effect of over 20% in size
Settings: TSHR-HEK293 cAMP HTRF, TSH-stimulated antagonist mode; series mostly up to 92.4 µM
Inconclusive results are not listed. Activity calls are given as the source filed them. Calls follow the shape of the full dose curve.
// classify into active, inactive

Example results:
compound | system | group
CCCCCCCC[N+](C)(CCCCCCCC)CCCCCCCC | Thyrotropin receptor (Homo sapiens) (UniProt P16473) | inactive
Clc1ccc(C(Cl)(Cl)Cl)cc1 | Thyrotropin receptor (Homo sapiens) (UniProt P16473) | inactive
CC(C)CON=O | Thyrotropin receptor (Homo sapiens) (UniProt P16473) | inactive
CC(C)(c1ccccc1)c1ccc(O)c(C(C)(C)c2ccccc2)c1 | Thyrotropin receptor (Homo sapiens) (UniProt P16473) | inactive
O=[N+]([O-])c1ccc(Nc2ccccc2)cc1 | Thyrotropin receptor (Homo sapiens) (UniProt P16473) | inactive
[CH3][Sn]([Cl])([Cl])[Cl] | Thyrotropin receptor (Homo sapiens) (UniProt P16473) | inactive

Tell me the recorded outcome of this test for `O=[N+]([O-])/N=C1\NCCN1Cc1ccc(Cl)nc1` .
inactive

---

Target: Cytochrome P450 2D6 (Homo sapiens) (UniProt P10635)
Sequence (P10635 whole entry, looked up): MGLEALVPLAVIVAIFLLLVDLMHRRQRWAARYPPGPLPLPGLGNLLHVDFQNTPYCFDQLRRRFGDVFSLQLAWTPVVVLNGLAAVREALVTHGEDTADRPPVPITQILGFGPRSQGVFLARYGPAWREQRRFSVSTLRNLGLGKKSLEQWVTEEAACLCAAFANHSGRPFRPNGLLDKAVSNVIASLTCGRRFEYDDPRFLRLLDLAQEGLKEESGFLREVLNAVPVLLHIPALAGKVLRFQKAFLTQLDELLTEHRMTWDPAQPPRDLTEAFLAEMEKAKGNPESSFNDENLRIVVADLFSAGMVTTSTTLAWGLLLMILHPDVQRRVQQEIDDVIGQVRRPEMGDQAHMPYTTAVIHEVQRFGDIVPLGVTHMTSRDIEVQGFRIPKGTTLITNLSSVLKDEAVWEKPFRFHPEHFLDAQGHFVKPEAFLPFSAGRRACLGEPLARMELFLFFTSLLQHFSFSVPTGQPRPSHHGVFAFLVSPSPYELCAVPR
Test: Cytochrome P450 Family 2 Subfamily D Member 6 (CYP2D6) small molecule antagonists: luciferase reporter qHTS assay (AID 1671196); also: nearly all actives have a fitted effect of over 50% in size
Conditions: P450-Glo CYP2D6 enzyme assay, luciferin luminescence, 1 h; series mostly up to 115 µM
Results filed as inconclusive are left out. Active and inactive are the calls of the source. Calls come from the whole dose curve; as a rule, active = well fitted inhibition curve with a large enough effect in the repeat runs; inconclusive = weak or mixed curves; inactive = no such curve, though single readings can be large or run the other way.
// classify into active, inactive

compound | system | group
O=NN1CCOCC1 | Cytochrome P450 2D6 (Homo sapiens) (UniProt P10635) | inactive
CCCCCCCCCCCCCl | Cytochrome P450 2D6 (Homo sapiens) (UniProt P10635) | inactive
COP(=S)(OC)Oc1ccc(S(=O)(=O)N(C)C)cc1 | Cytochrome P450 2D6 (Homo sapiens) (UniProt P10635) | active
Brc1ccc(Br)cc1 | Cytochrome P450 2D6 (Homo sapiens) (UniProt P10635) | inactive
CCN(CC)C(=O)C(C)Oc1cccc2ccccc12 (stereo not drawn) | Cytochrome P450 2D6 (Homo sapiens) (UniProt P10635) | inactive

Tell me the recorded outcome of this test for COP(=O)(NC(C)=O)SC (stereo not drawn) .
inactive

Tell me the recorded outcome of this test for `CCCCOCCOC(C)=O` .
inactive

Tell me the recorded outcome of this test for `CCNc1nc(Cl)nc(NC(C)(C)C#N)n1` .
inactive

---

Experiment: qHTS RealTime-Glo MT Cell Viability Assay in HepG2 cells - 40 hour (AID 1224870); also: nearly all actives have a fitted effect of over 50% in size
Conditions: RealTime-Glo luminescence; series mostly up to 76.8 µM
Inconclusive results are not listed. Active and inactive are the calls of the source. Calls follow the shape of the dose curve; as a rule, active = well fitted cell-killing curve with a large enough effect in the repeat runs; inconclusive = weak or mixed curves, or effect the other way; inactive = flat fitted curve, though single readings scatter.
readout name: outcome

compound | measured value
Cc1cc(Cl)ccc1N=CN(C)C | inactive
Nc1ccc2ccccc2c1 | inactive
CSc1nc(NC(C)C)nc(NC(C)C)n1 | inactive
Brc1ccc(Br)cc1 | inactive
CCCCCCCCCc1ccc(O)cc1 | inactive

Given the entry `C[N+](C)(C)C` , report its measured outcome.
inactive

Given the entry `Clc1ccccc1-c1nnc(-c2ccccc2Cl)nn1` , report its measured outcome.
inactive

Given the entry `COP(=S)(OC)SCn1nnc2ccccc2c1=O` , report its measured outcome.
inactive

Given the entry `Oc1ccc(Cl)cc1Cl` , report its measured outcome.
inactive

Given the entry `CNC(=S)S` , report its measured outcome.
inactive

Given the entry `CC(C)(C#N)N=NC(C)(C)C#N` , report its measured outcome.
inactive

Given the entry `COc1ccc(CO)cc1` , report its measured outcome.
inactive
